Molecular target: Purified Arp2/3 complex
Assay: fluorescence anisotropy, labelled ArpinA peptide titrated with purified Arp2/3 complex
No end group written: not given here. *: point of attachment. 5‑TAMRA = 5-carboxytetramethylrhodamine label, CN(C)c1ccc2c(-c3ccc(C(=O)*)cc3C(=O)[O-])c3ccc(=[N+](C)C)cc-3oc2c1
assay_readout: Kd (nM)
Please give a number only; it is taken to be in nM.

Query string: Could you tell me which Kd is on file for {5‑TAMRA}-EIREQGDGAEDEEWDD [ArpinA peptide labelled with 5-TAMRA at the N-terminus] ?
Result string: 384
